Reported IC50 is given for each of the following compounds.
Target: human RIPK2 kinase (Homo sapiens (Human))
Sequence (O43353 1-299): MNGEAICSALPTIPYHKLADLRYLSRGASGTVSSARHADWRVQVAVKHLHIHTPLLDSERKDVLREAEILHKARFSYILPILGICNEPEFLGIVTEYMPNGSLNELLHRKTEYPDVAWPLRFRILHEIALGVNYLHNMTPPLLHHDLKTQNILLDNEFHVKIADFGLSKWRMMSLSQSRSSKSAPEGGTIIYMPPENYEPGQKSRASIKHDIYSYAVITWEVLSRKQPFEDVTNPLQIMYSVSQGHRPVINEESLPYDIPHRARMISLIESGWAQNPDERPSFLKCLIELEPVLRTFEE

>>> observed_measurement("Cc1ccccc1-c1cc2nc(NCC3CCOCC3)ncc2[nH]1")
"100 to 500 nM"

Find the recorded IC50 belonging to Cc1cccc(C)c1-c1cc2nc(Nc3cccc(N4CCOCC4)c3)ncc2[nH]1 and report it.
≤ 100 nM

What do you have for Cc1ccccc1-c1cc2nc(NC3CCOCC3)ncc2[nH]1 ?
> 500 nM

###

Please consider the recorded GI50 for HCT116 colon cancer cells in what follows.

>>> observed_measurement("Fc1ccccc1-c1cc2nc(Nc3cccc(N4CCOCC4)c3)ncc2[nH]1")
"≤ 1 µM"

Form field: GI50 recorded for Cc1ccccc1-c1cc2nc(Nc3ccc(N4CCOCC4)cc3)ncc2[nH]1 with HCT116 colon cancer cells (enter value)
> 10 µM

Would you kindly repeat that for Cc1cccc(C)c1-c1cc2nc(Nc3cccc(N4CCN(C)CC4)c3)ncc2[nH]1 ?
1 to 10 µM

How about this compound: Cc1ccccc1-c1cc2nc(Nc3ccc(OC4CCN(C)CC4)cc3)ncc2[nH]1
1 to 10 µM

Repeat with Cc1ccccc1-c1cc2nc(Nc3cccc(CN4CCOCC4)c3)ncc2[nH]1
1 to 10 µM

Consider next the compound Cc1cccc(C)c1-c1cc2nc(Nc3cccc(N4CCOCC4)c3)ncc2[nH]1 in the same way.
1 to 10 µM

Cc1ccccc1-c1cc2nc(Nc3cccc(N4CCOCC4)c3)ncc2[nH]1 ?
≤ 1 µM

Would you mind doing Cc1ccccc1-c1cc2nc(Nc3cccc(CN4CCN(C)CC4)c3)ncc2[nH]1 as well?
1 to 10 µM

Repeat with Cc1ccccc1-c1cc2nc(Nc3cccc(N4CCN(C)CC4)c3)ncc2[nH]1
≤ 1 µM
